- target of assay: Protein deacetylase HDAC6 (Homo sapiens, UniProt Q9UBN7)
- Sequence (Q9UBN7 whole entry): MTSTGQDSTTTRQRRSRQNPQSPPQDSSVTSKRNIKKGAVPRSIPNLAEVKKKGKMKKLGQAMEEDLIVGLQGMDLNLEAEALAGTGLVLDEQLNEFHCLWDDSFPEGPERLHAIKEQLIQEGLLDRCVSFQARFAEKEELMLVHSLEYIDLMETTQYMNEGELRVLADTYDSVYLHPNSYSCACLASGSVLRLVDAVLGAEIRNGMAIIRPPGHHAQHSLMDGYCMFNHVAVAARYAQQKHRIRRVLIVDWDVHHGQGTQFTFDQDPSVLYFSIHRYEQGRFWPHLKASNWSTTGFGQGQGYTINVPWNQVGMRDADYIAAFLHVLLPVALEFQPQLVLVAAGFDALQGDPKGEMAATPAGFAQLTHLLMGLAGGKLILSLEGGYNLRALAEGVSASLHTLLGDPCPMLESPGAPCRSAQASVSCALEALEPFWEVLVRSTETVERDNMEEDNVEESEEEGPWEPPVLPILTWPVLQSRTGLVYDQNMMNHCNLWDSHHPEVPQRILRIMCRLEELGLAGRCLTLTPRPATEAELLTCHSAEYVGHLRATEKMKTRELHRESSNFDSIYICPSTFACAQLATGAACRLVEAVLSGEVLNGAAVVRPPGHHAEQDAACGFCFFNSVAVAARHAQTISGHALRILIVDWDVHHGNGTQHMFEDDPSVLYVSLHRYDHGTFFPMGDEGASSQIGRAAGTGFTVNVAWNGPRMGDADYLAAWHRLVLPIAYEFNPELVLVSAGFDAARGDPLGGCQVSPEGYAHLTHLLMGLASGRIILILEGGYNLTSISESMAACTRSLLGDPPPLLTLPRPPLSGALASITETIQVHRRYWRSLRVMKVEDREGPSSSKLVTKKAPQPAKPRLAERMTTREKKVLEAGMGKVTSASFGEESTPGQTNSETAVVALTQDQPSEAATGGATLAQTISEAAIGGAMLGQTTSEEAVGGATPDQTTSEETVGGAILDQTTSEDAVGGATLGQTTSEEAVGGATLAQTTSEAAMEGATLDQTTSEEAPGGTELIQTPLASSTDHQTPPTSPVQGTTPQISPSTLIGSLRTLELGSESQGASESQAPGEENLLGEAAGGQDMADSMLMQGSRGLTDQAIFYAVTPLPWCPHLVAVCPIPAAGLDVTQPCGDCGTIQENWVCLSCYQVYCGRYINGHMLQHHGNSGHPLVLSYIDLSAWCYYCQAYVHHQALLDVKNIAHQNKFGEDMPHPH
- experiment description: Inhibition of recombinant human HDAC6 using Cbz-(Ac)Lys-AMC as substrate preincubated for 90 mins followed by trypsin addition measured after 20 mins by fluorescence assay
- protocol conditions: read-out: IC50
readout type: IC50 (nM)
Express it in nM; write the number only.

Past entries and their recorded results:
{"smiles repr": "CCOc1ccc(C(=O)NO)cc1NC(=O)c1ccccc1", "experimental result": 1300}
{"smiles repr": "COc1ccc(C(=O)NO)cc1S(=O)(=O)Nc1ccc(C)cc1", "experimental result": 2400}

Task item: Field request: IC50 | item: O=C(NO)c1ccc(Br)c(NC(=O)c2ccccc2)c1
Reply: 150

Task item: I have this compound here, O=C(NO)c1ccc(Cl)c(NC(=O)c2ccccc2)c1 , and I need its recorded IC50.
Reply: 120

Task item: Which IC50 is reported for this compound? CC(C)Oc1ccc(C(=O)NO)cc1NC(=O)c1ccccc1
Reply: 2600

Task item: What value of IC50 has been reported for the following compound? O=C1CCSc2ccc(C(=O)NO)cc2N1
Reply: 1300
